# credit: paper PMC10039899

biological target: phosphoglycerate kinase 1 (PGK1) (Homo sapiens, UniProt P00558); construct: Flag-tagged PGK1, whole-length cDNA, purified from HEK293T cells; assay: in vitro enzymatic assay of purified Flag-PGK1, GAPDH-coupled, NADH decrease at […] nm
Sequence (P00558 2-417): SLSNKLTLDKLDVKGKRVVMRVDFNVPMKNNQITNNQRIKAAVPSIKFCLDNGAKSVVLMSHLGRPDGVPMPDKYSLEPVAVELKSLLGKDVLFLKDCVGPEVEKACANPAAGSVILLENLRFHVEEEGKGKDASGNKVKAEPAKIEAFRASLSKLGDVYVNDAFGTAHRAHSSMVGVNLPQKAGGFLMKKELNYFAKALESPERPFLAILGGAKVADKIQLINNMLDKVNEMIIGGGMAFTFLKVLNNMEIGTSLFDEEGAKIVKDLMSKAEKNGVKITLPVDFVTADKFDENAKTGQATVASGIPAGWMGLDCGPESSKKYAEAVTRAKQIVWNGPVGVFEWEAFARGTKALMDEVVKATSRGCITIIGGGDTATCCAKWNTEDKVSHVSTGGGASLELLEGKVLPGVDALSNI
Measurement type: IC50 (nM)
State just the number; it will be interpreted in nM.

Challenge: # lookup: IC50 of Nc1ccn([C@@H]2O[C@H](CO)[C@@H](O)C2(F)F)c(=O)n1 [gemcitabine]
Response given: 16.3
